- Organism: Rattus norvegicus
- experimental-protocol: DrugMatrix - Regimen: Daily Repeat
- Assay type: toxicity, organism-based, Sprague-Dawley
- Set-up: regimen Daily Repeat, gender Male, age 6-8 weeks
- details: in vivo, po, 2000 mg/kg, 120 h, tissue Blood, route oral GAVAGE, dose level High, time 5 day, vehicle .5 % CMC
What ABSOLUTE MONOCYTE was measured for each of the following?
Entry rule: numbers only, all in CELLS/uL.

QUERY: Retrieve ABSOLUTE MONOCYTE measured for O=C1Nc2ccc(Cl)cc2C(c2ccccc2Cl)=NC1O (centres undefined) and print it.
RESULT: 148

QUERY: Retrieve ABSOLUTE MONOCYTE measured for COc1cc2nc(N3CCN(C(=O)c4ccco4)CC3)nc(N)c2cc1OC and print it.
RESULT: 0

QUERY: Retrieve ABSOLUTE MONOCYTE measured for CC1(C)S[C@@H]2[C@H](NC(=O)[C@H](N)c3ccccc3)C(=O)N2[C@H]1C(=O)O and print it.
RESULT: 151.67

QUERY: Retrieve ABSOLUTE MONOCYTE measured for CN/C(=N/CCSCc1nc[nH]c1C)NC#N and print it.
RESULT: 531.33

---

- Species on record: Rattus norvegicus
- experimental-protocol: DrugMatrix - Regimen: Daily Repeat
- Type: toxicity, organism-based, Sprague-Dawley
- Set-up: regimen Daily Repeat, gender Male, age 6-8 weeks
- details: in vivo, po, 0 mg/kg, 120 h, tissue Plasma, route oral GAVAGE, dose level Control, time 5 day, […]
What CHOLESTEROL was measured for each of the following?
Entry rule: numbers only, all in mg/dL.

QUERY: Retrieve CHOLESTEROL measured for CO[C@H]1/C=C/O[C@@]2(C)Oc3c(C)c(O)c4c(O)c(c(/C=N/N5CCN(C6CCCC6)CC5)c(O)c4c3C2=O)NC(=O)/C(C)=C\C=C\[C@H](C)[C@H](O)[C@@H](C)[C@@H](O)[C@@H](C)[C@H](OC(C)=O)[C@@H]1C and print it.
RESULT: 60.67

QUERY: Retrieve CHOLESTEROL measured for Clc1ccc(COC(Cn2ccnc2)c2ccc(Cl)cc2Cl)cc1 (centres undefined) and print it.
RESULT: 65.67

QUERY: Retrieve CHOLESTEROL measured for CC(C)(C)NC(=O)[C@H]1CC[C@H]2[C@@H]3CC[C@H]4NC(=O)C=C[C@]4(C)[C@H]3CC[C@]12C [FINASTERIDE] and print it.
RESULT: 79.67

QUERY: Retrieve CHOLESTEROL measured for COc1cc(N)c(Cl)cc1C(=O)NC1CCN(CCCOc2ccc(F)cc2)CC1OC (centres undefined) [CISAPRIDE] and print it.
RESULT: 56.5

---

- Organism: Rattus norvegicus
- experimental-protocol: DrugMatrix - Regimen: Daily Repeat
- Assay type: toxicity, organism-based, Sprague-Dawley
- Set-up: regimen Daily Repeat, gender Male, age 6-8 weeks
- details: in vivo, ip, 0 mg/kg, 120 h, tissue Blood, route intraperitoneal, dose level Control, time 5 day, vehicle 100 % SALINE
property-measured: ABSOLUTE SEGMENTED NEUTROPHIL
A complete answer gives the number followed by the unit.

QUERY: Retrieve ABSOLUTE SEGMENTED NEUTROPHIL measured for GENTAMICIN and print it.
RESULT: 1170 cells/µL

---

- Organism: Rattus norvegicus
- experimental-protocol: DrugMatrix - Regimen: Daily Repeat
- Type: toxicity, organism-based, Sprague-Dawley
- Design: regimen Daily Repeat, gender Male, age 6-8 weeks
- details: in vivo, po, 2000 mg/kg, 120 h, tissue Plasma, route oral GAVAGE, dose level High, time 5 day, vehicle .5 % CMC
property-measured: CHOLESTEROL (mg/dL)
Entry rule: numbers only, all in mg/dL.

QUERY: Retrieve CHOLESTEROL measured for O=C1Nc2ccc(Cl)cc2C(c2ccccc2Cl)=NC1O (stereo unspecified) and print it.
RESULT: 76.5

QUERY: Retrieve CHOLESTEROL measured for COc1cc2nc(N3CCN(C(=O)c4ccco4)CC3)nc(N)c2cc1OC and print it.
RESULT: 64.67

QUERY: Retrieve CHOLESTEROL measured for CN(C/C=C/C#CC(C)(C)C)Cc1cccc2ccccc12 and print it.
RESULT: 84.67

QUERY: Retrieve CHOLESTEROL measured for CC1(C)S[C@@H]2[C@H](NC(=O)[C@H](N)c3ccccc3)C(=O)N2[C@H]1C(=O)O and print it.
RESULT: 73

QUERY: Retrieve CHOLESTEROL measured for NC1CCN(c2nc3c(cc2F)c(=O)c(C(=O)O)cn3-c2ccc(F)cc2F)C1 (stereo unspecified) and print it.
RESULT: 65.67

QUERY: Retrieve CHOLESTEROL measured for CN/C(=N/CCSCc1nc[nH]c1C)NC#N and print it.
RESULT: 60

---

- Species on record: Rattus norvegicus
- experimental-protocol: DrugMatrix - Regimen: Daily Repeat
- Format: toxicity, organism-based, Sprague-Dawley
- Set-up: regimen Daily Repeat, gender Male, age 6-8 weeks
- details: in vivo, po, 2000 mg/kg, 72 h, tissue Blood, route oral GAVAGE, dose level High, time 3 day, vehicle .5 % CMC
property-measured: BASOPHIL (%)
Entry rule: numbers only, all in %.

QUERY: Retrieve BASOPHIL measured for COc1cc2nc(N3CCN(C(=O)c4ccco4)CC3)nc(N)c2cc1OC and print it.
RESULT: 0

QUERY: Retrieve BASOPHIL measured for O=C1Nc2ccc(Cl)cc2C(c2ccccc2Cl)=NC1O (stereo unspecified) and print it.
RESULT: 0

QUERY: Retrieve BASOPHIL measured for NC1CCN(c2nc3c(cc2F)c(=O)c(C(=O)O)cn3-c2ccc(F)cc2F)C1 (stereo unspecified) and print it.
RESULT: 0

QUERY: Retrieve BASOPHIL measured for CN(C/C=C/C#CC(C)(C)C)Cc1cccc2ccccc12 and print it.
RESULT: 0

QUERY: Retrieve BASOPHIL measured for CC1(C)S[C@@H]2[C@H](NC(=O)[C@H](N)c3ccccc3)C(=O)N2[C@H]1C(=O)O and print it.
RESULT: 0

QUERY: Retrieve BASOPHIL measured for CN/C(=N/CCSCc1nc[nH]c1C)NC#N and print it.
RESULT: 0

---

- Species on record: Rattus norvegicus
- experimental-protocol: DrugMatrix - Regimen: Daily Repeat
- Assay type: toxicity, organism-based, Sprague-Dawley
- Parameters: regimen Daily Repeat, gender Male, age 6-8 weeks
- details: in vivo, po, 0 mg/kg, 120 h, tissue Plasma, route oral GAVAGE, dose level Control, time 5 day, vehicle 100 % WATER
property-measured: ALANINE AMINOTRANSFERASE (u/L)
Entry rule: numbers only, all in u/L.

QUERY: Retrieve ALANINE AMINOTRANSFERASE measured for Cn1c(=O)c2[nH]cnc2n(C)c1=O.O [THEOPHYLLINE] and print it.
RESULT: 55.5

QUERY: Retrieve ALANINE AMINOTRANSFERASE measured for CN(C)CC[C@@H](c1ccc(Cl)cc1)c1ccccn1 [DEXCHLORPHENIRAMINE] and print it.
RESULT: 55.33

QUERY: Retrieve ALANINE AMINOTRANSFERASE measured for O.O.O.O.O.O.[Cl-].[Cl-].[Sr+2] [STRONTIUM CHLORIDE HEXAHYDRATE] and print it.
RESULT: 48.5

QUERY: Retrieve ALANINE AMINOTRANSFERASE measured for CC(C)(C)CC(C)(C)c1ccc(OCCOCC[N+](C)(C)Cc2ccccc2)cc1.[Cl-] [BENZETHONIUM CHLORIDE] and print it.
RESULT: 51

QUERY: Retrieve ALANINE AMINOTRANSFERASE measured for NNc1nncc2ccccc12 [HYDRALAZINE] and print it.
RESULT: 51

QUERY: Retrieve ALANINE AMINOTRANSFERASE measured for Cc1ccc(NC(=O)c2ccc(CN3CCN(C)CC3)cc2)cc1Nc1nccc(-c2cccnc2)n1 [IMATINIB] and print it.
RESULT: 48.5

QUERY: Retrieve ALANINE AMINOTRANSFERASE measured for CCN(CC)CCNC(=O)c1cc(S(C)(=O)=O)ccc1OC [TIAPRIDE] and print it.
RESULT: 48.5

QUERY: Retrieve ALANINE AMINOTRANSFERASE measured for CS(=O)(=O)c1ccc([C@@H](O)[C@@H](CO)NC(=O)C(Cl)Cl)cc1 [THIAMPHENICOL] and print it.
RESULT: 48.5

QUERY: Retrieve ALANINE AMINOTRANSFERASE measured for Oc1cccc(O)c1O [PYROGALLOL] and print it.
RESULT: 43

QUERY: Retrieve ALANINE AMINOTRANSFERASE measured for CC(C)NCC(O)c1ccc(NS(C)(=O)=O)cc1 (stereo not given) [SOTALOL] and print it.
RESULT: 59.5
